The reported numbers originate from the Immune Epitope Database (IEDB).

# SYSTEM: HLA-A*01:01
# ASSAY_EXPLANATION: IEDB peptide-MHC binding, purified MHC/direct/fluorescence; filed as Kd, often an IC50 or EC50 that approximates it; bounds were set here for any values at or beyond the usual limits of such assays
# ASSAY_CONDITIONS: source organism: Ebola virus - Gabon (1994-1997)
pKd: −log10 of the molar value.
ENDPOINT: pKd

### Prompt Assign pKd to the following record: YFTFDLTAL
### Response ≤ 4.70

----------
# SYSTEM: HLA-B*27:03
# ASSAY_EXPLANATION: IEDB peptide-MHC binding, purified MHC/competitive/fluorescence; filed as Kd, often an IC50 or EC50 that approximates it; bounds were set here for any values at or beyond the usual limits of such assays
# ASSAY_CONDITIONS: source organism: Bacillus anthracis str. 'Ames Ancestor'
ENDPOINT: Kd

### Prompt Assign Kd to the following record: MTQNISNDK
### Response ≥ 20 µM
